Each entry below carries its recorded IC50.
# system.tested: UniProt:Q03111
# Sequence (Q03111 whole entry): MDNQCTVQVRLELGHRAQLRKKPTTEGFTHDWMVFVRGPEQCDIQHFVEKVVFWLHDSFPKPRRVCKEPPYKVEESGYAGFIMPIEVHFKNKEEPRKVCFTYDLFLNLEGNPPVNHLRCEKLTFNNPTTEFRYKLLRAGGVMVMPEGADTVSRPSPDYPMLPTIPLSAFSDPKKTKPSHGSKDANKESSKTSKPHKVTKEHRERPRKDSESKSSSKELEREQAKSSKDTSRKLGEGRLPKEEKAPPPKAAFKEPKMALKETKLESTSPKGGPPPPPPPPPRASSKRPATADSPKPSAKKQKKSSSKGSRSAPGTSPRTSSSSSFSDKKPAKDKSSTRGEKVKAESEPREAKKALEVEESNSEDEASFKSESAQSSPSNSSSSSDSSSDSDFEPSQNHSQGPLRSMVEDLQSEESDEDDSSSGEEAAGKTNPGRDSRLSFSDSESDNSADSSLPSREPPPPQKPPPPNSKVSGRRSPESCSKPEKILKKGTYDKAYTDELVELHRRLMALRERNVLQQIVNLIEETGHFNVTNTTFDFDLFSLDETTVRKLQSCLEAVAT
# test.name: biochemical
# assay.context: MLLT1 assay IC50 (nM), HTRF, 6His tagged MLLT1, biotinylated H3K9cro peptide; compound 20 μM to 20 nM, 11 data points in duplicate
value.kind: IC50

compound	value.kind	obs.value
Cc1nc2ccc(C(=O)Nc3ccc4nc(C5CCCN5C)cn4c3)cc2nc1C (racemic)	IC50	150 to 1500 nM
CN1CCCC1c1cn2cc(NC(=O)c3ccc(-c4cncs4)cc3F)ccc2n1 (single isomer, unassigned) [Example 7]	IC50	1500 to 20000 nM
Cc1nn(C)c2cc(C(=O)Nc3cn4cc([C@H]5CCCN5)nc4cn3)ccc12	IC50	150 to 1500 nM
CN1CCCCC1c1cn2cc(NC(=O)c3ccc4c(cnn4C)c3)ccc2n1 (single isomer, unassigned) [Example 27]	IC50	1500 to 20000 nM
CN1CCCC1c1cn2cc(NC(=O)c3ccc4cc(F)ccc4c3)ccc2n1 (single isomer, unassigned) [Example 6]	IC50	1500 to 20000 nM
CN1CCCC1c1cn2cc(NC(=O)c3cc4ccncc4o3)ccc2n1 (racemic)	IC50	150 to 1500 nM
Cc1nc(NC(=O)c2cc3cnc(C)n3cc2F)cn2cc([C@H]3CCCN3C)nc12	IC50	150 to 1500 nM

Taken from patent US20260216196A1.
